# Test Description: Solubilities of weakly basic drugs in organic acid buffers
# Study Conditions: pH 2.01, aqueous buffer, Solubility of Ondansetron Hydrochloride, fumaric acid 5 mg/mL; start pH 2.13, end pH 2.01
Readout Name: solubility (mg/mL)
Supply the numeric figure in mg/mL, leaving out any unit text.

Exam item: What value of solubility has been recorded for this entry: Cc1nccn1CC1CCc2c(c3ccccc3n2C)C1=O.Cl.O.O (racemic) [Ondansetron Hydrochloride]
Marked response: 26.9

----------
# Test Description: physchem
# Study Conditions: pH 4.71, aqueous buffer
Readout Name: solubility (µg/mL)
Numeric only. Scale: µg/mL

Exam item: solubility for OCCN(CCO)c1nc(N2CCCCC2)c2nc(N(CCO)CCO)nc(N3CCCCC3)c2n1 [Dipyridamole] ?
Marked response: 130
